- PROTOCOL SUMMARY: Inhibition of RNA polymerase

- COMPOUND: "C=C(C)[C@@H]1CC[C@@H]2[C@]3(CC[C@]4(C)[C@@H]([C@H](C)CC/C=C(/C)C(=O)O)CC[C@@]24C)C[C@]13CCC(=O)O [NIGRANOIC ACID]"
  DISPLAY UNIT: "µM"
  IC50: 188

----------
- PROTOCOL SUMMARY: Inhibition of AMV reverse transcriptase
- Set-up: species or system Avian myeloblastosis virus
READOUT: IC50 (µM)

- SMILES STR: "C=C(C)[C@@H]1CC[C@@H]2[C@]3(CC[C@]4(C)[C@@H]([C@H](C)CC/C=C(/C)C(=O)O)CC[C@@]24C)C[C@]13CCC(=O)O"
  READOUT: "IC50"
  REPORTED MEASUREMENT: 242
